Assay: chemical genetic growth profiling, strain panel (AID 1159580);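 also: tested at 20 µM; growth read once vehicle control cultures reached saturation at 30 °C; 1 = growth at the plate median or of vehicle wells; lower values mean less growth of the strain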
Details: S. cerevisiae deletion strains, growth OD, locus YNR052C, strain pop2, stronger effect = lower value
The campaign covered roughly 5,500 compounds. About 2,000 (36%) were called active. Not shown: some 18% with an inconclusive outcome. The list shows a part of the results.
assay-endpoint: normalized growth

1. CCOC(=O)CC(SP(=S)(OC)OC)C(=O)OCC (stereo not drawn)    1 (inactive)

Report normalized growth, nothing else, for this compound: `CC(=O)Oc1ccccc1C(=O)Oc1ccccc1C(=O)O`
0.975 (inactive)

Read off the recorded normalized growth for `NC[C@H]1O[C@H](O[C@H]2[C@H](O)[C@@H](O[C@H]3O[C@H](CO)[C@@H](O)[C@H](N)[C@H]3O)[C@H](N)C[C@@H]2N)[C@H](N)[C@@H](O)[C@@H]1O`
1 (inactive)

Please list normalized growth recorded for the compound `CC[C@@]1(O)C(=O)OCc2c1cc1n(c2=O)Cc2cc3ccccc3nc2-1`
0.207 (active)

Assign normalized growth to the following record: C[C@]12CC[C@H](O)C[C@H]1CCC1C2CC[C@]2(C)[C@@H](C3=CC(=O)OC3)[C@@H](O)C[C@]12O (stereo partly drawn)
0.987 (inactive)

In one line, give reported normalized growth of the entry C[C@H]1O[C@@H](O[C@H]2[C@@H](O)C[C@H](O[C@H]3[C@@H](O)C[C@H](O[C@H]4CC[C@]5(C)C6CC[C@]7(C)[C@@H](C8=CC(=O)OC8)CC[C@]7(O)C6CC[C@@H]5C4)O[C@@H]3C)O[C@@H]2C)C[C@H](O)[C@@H]1O (stereo partly drawn) .
0.999 (inactive)

Look up normalized growth of CC(C)=CC1C(CO)C1(C)C (stereo not drawn) and report it.
0.995 (inactive)

Provide normalized growth value for the following compound: COP(N)(=O)SC (stereo not drawn)
1.02 (inactive)

Hey, just so you know, these numbers are from PubChem BioAssay AID1159580.
